Data origin: patent US20100286145A1

Measured pKi values are reported for all entries that follow.
- TESTED_ON: UniProtKB P56817
- PROCEDURE_DETAILS: Inhibition of memapsin 2 beta-secretase activity (fluorogenic substrate FS-2)
- Type: biochemical
- RECORDED_CONDITIONS: memapsin 2, pH 4, 37° C., fluorogenic substrate FS-2; read-out: M2Ki
pKi: −log10 of the molar value.

Consider the reported pKi for these compounds:
[
  {
    "COMPOUND": "Cc1nnc(CN(C)C(=O)c2cccc(C(=O)N[C@@H](Cc3ccccc3)[C@H](O)CNCc3cncc(C(C)C)c3)c2)o1 [Compound 256]",
    "TESTED_ON": "UniProtKB P56817",
    "pKi": "< 6.30"
  },
  {
    "COMPOUND": "Cc1csc(CN(C)C(=O)c2cccc(C(=O)N[C@@H](Cc3ccccc3)[C@H](O)CNCc3cc(C#N)cc(C(C)C)c3)c2)n1 [Compound 248]",
    "TESTED_ON": "UniProtKB P56817",
    "pKi": "> 6.52"
  }
]

Switching to the query record.
Tell me pKi reported for CC(C)c1cncc(CNC[C@@H](O)[C@H](Cc2ccccc2)NC(=O)c2cccc(C(=O)N(C)Cc3nc(CF)cs3)c2)c1 [Compound 278] > 6.52

---

Measured Ki values are reported for all entries that follow.
- TESTED_ON: memapsin 2 (Homo sapiens, UniProt P56817)
- Sequence (P56817 46-501): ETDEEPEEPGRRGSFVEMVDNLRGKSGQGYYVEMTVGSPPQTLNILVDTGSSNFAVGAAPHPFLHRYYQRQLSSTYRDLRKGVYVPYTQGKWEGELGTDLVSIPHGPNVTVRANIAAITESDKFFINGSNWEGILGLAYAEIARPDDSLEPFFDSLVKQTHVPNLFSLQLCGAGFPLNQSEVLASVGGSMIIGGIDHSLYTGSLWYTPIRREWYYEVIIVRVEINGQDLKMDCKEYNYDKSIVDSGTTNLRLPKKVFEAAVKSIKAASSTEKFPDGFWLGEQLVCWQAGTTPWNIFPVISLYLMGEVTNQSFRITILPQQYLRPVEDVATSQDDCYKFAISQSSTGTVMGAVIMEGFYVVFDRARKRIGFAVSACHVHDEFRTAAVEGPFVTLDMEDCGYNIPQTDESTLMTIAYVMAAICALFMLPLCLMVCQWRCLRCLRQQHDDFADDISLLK
- PROCEDURE_DETAILS: Inhibition of memapsin 2 beta-secretase activity (fluorogenic substrate FS-2)
- Format: biochemical
- RECORDED_CONDITIONS: memapsin 2, pH 4, 37° C., 20 minutes pre-incubation; read-out: M2Ki

[
  {
    "STRUCTURE_NOTATION": "Cc1csc(CN(C)C(=O)c2cccc(C(=O)N[C@@H](Cc3ccccc3)[C@H](O)CNCc3cc(C(C)C)ccn3)c2)n1",
    "TESTED_ON": "memapsin 2 (Homo sapiens, UniProt P56817)",
    "ENDPOINT_VALUE": "< 300 nM"
  },
  {
    "STRUCTURE_NOTATION": "Cc1csc(CN(C)C(=O)c2cccc(C(=O)N[C@@H](Cc3ccccc3)[C@H](O)CNCc3ccccn3)c2)n1",
    "TESTED_ON": "memapsin 2 (Homo sapiens, UniProt P56817)",
    "ENDPOINT_VALUE": "> 501 nM"
  },
  {
    "STRUCTURE_NOTATION": "COc1cc(CNC[C@@H](O)[C@H](Cc2ccccc2)NC(=O)c2cccc(C(=O)N(C)Cc3nc(C)cs3)c2)cc(OC)c1",
    "TESTED_ON": "memapsin 2 (Homo sapiens, UniProt P56817)",
    "ENDPOINT_VALUE": "< 300 nM"
  }
]

Tell me Ki reported for "Cc1csc(CN(C)C(=O)c2cccc(C(=O)N[C@@H](Cc3cc(F)cc(F)c3)[C@H](O)CNCc3cncc(C(C)C)c3)c2)n1" < 300 nM

Tell me Ki reported for "C=Cc1cc(C(=O)N[C@@H](Cc2ccccc2)[C@H](O)CNCc2cccc(OC)c2)cc(C(=O)N(C)Cc2nc(C)cs2)c1" < 300 nM

Tell me Ki reported for "C[C@@H](NC(=O)c1cc(C(=O)N[C@@H](Cc2ccccc2)[C@H](O)CNCc2cccc(CO)c2)cc(N(C)S(C)(=O)=O)c1)c1ccccc1" < 300 nM

---

- PROCEDURE_DETAILS: Brain pharmacokinetic analysis / brain penetration in rats, i.v. bolus
- Assay type: in vivo
- RECORDED_CONDITIONS: male, Sprague-Dawley, rat, in vivo, iv; rats, single dose i.v. 10 mg/kg; read-out: AUC24 hr, Brain
- Text: Quantitative analysis was used to determine the concentration of a test inhibitor, N1-((2S,3R)-4-((5-(2-fluoropropan-2-yl)pyridin-3-yl)methylamino)-3-hydroxy-1-phenylbutan-2-yl)-N3-methyl-N3-((4-methylthiazol-2-yl)methyl)isophthalamide, in biological tissues. The test inhibitor was extracted from a variety of biological samples followed by its selective identification and quantification from a standard curve prepared in the same extracted biological matrix. […]
PROPERTY_LABEL: AUC(0-t) (ng·h/mL)
A number alone suffices; assume ng·h/mL.

Tell me AUC(0-t) reported for "Cc1csc(CN(C)C(=O)c2cccc(C(=O)N[C@@H](Cc3ccccc3)[C@H](O)CNCc3cncc(C(C)(C)F)c3)c2)n1" 1210

---

- TESTED_ON: memapsin 2 (Homo sapiens, UniProt P56817)
- PROCEDURE_DETAILS: Inhibition of memapsin 2 beta-secretase activity (fluorogenic substrate FS-2)
- Format: biochemical
- RECORDED_CONDITIONS: memapsin 2, pH 4, 37° C., 20 minutes pre-incubation; read-out: M2Ki
- Experimental: Potency of compounds were determined by measurement of their inhibition of memapsin 2 activity toward a fluorescent substrate. Kinetic inhibition experiments were performed using the procedure as described in Ermolieff, et al. (Biochemistry 39:12450-12456 (2000), the teachings of which are incorporated hereby in their entirety). […] Fluorescent signal increase over time was measured as a rate of hydrolysis of the peptide substrate. […]
Measured Ki values are reported for all entries that follow.

Consider the reported Ki for these compounds:
[
  {
    "STRUCTURE_NOTATION": "CCN(CC)c1cccc(CNC[C@@H](O)[C@H](Cc2ccccc2)NC(=O)c2cccc(C(=O)N(C)Cc3nc(C)cs3)c2)c1",
    "TESTED_ON": "memapsin 2 (Homo sapiens, UniProt P56817)",
    "Ki": "< 300 nM"
  },
  {
    "STRUCTURE_NOTATION": "CC(=O)c1cccc(CNC[C@@H](O)[C@H](Cc2ccccc2)NC(=O)c2cccc(C(=O)N(C)Cc3nc(C)cs3)c2)c1",
    "TESTED_ON": "memapsin 2 (Homo sapiens, UniProt P56817)",
    "Ki": "< 300 nM"
  },
  {
    "STRUCTURE_NOTATION": "Cc1csc(CN(C)C(=O)c2cccc(C(=O)N[C@@H](Cc3ccccc3)[C@H](O)CNCc3ccc(C)c(C)c3)c2)n1",
    "TESTED_ON": "memapsin 2 (Homo sapiens, UniProt P56817)",
    "Ki": "< 300 nM"
  },
  {
    "STRUCTURE_NOTATION": "Cc1csc(CN(C)C(=O)c2cccc(C(=O)N[C@H](Cc3ccccc3)[C@H](O)CNCc3cncc(C(C)C)c3)c2)n1",
    "TESTED_ON": "memapsin 2 (Homo sapiens, UniProt P56817)",
    "Ki": "> 501 nM"
  },
  {
    "STRUCTURE_NOTATION": "COc1cccc(CNC[C@@H](O)[C@H](Cc2ccccc2)NC(=O)c2cc(OC)cc(C(=O)N(Cc3nc(C)cs3)C(C)C)c2)c1",
    "TESTED_ON": "memapsin 2 (Homo sapiens, UniProt P56817)",
    "Ki": "< 300 nM"
  }
]

Switching to the query record.
Param request: Ki | system memapsin 2 (Homo sapiens, UniProt P56817) | item "COC(=O)c1ccc(CNC[C@@H](O)[C@H](Cc2ccccc2)NC(=O)c2cccc(C(=O)N(C)Cc3nc(C)cs3)c2)nc1C" > 501 nM

---

Measured Ki values are reported for all entries that follow.
- TESTED_ON: memapsin 2 (Homo sapiens, UniProt P56817)
- PROCEDURE_DETAILS: Inhibition of memapsin 2 beta-secretase activity (fluorogenic substrate FS-2)
- Assay type: biochemical
- RECORDED_CONDITIONS: memapsin 2, pH 4, 37° C., fluorogenic substrate FS-2; read-out: M2Ki

Consider the reported Ki for these compounds:
[
  {
    "STRUCTURE_NOTATION": "Cc1csc(CN(C)C(=O)c2cc(C(=O)N[C@@H](Cc3ccccc3)[C@H](O)CNCc3cccc(C(F)(F)F)c3)cc(-c3cccc(N(C)C(=O)OC(C)(C)C)c3)c2)n1",
    "Ki": "< 300 nM"
  },
  {
    "STRUCTURE_NOTATION": "COc1cc(CNC[C@@H](O)[C@H](Cc2ccccc2)NC(=O)c2cccc(C(=O)N(C)Cc3nc(C)cs3)c2)cc([N+](=O)[O-])c1",
    "Ki": "< 300 nM"
  },
  {
    "STRUCTURE_NOTATION": "Cc1csc(CN(C)C(=O)c2cc(C(=O)N[C@@H](Cc3ccccc3)[C@H](O)CNCc3cncc(C(C)C)c3)cc(-c3ccco3)c2)n1",
    "Ki": "< 300 nM"
  },
  {
    "STRUCTURE_NOTATION": "Cc1csc(CN(C)C(=O)c2cc(C(=O)N[C@@H](Cc3ccccc3)[C@H](O)CNCc3cncc(C(C)C)c3)cc(-n3cccc3)c2)n1",
    "Ki": "< 300 nM"
  }
]

Tell me Ki reported for "C=C(C)c1cc(CNC[C@@H](O)[C@H](Cc2ccccc2)NC(=O)c2cccc(C(=O)N(C)Cc3nc(C)cs3)c2)c[n+]([O-])c1" < 300 nM

Tell me Ki reported for "CC(=O)c1cc(C(=O)N[C@@H](Cc2ccccc2)[C@H](O)CNCc2cncc(C(C)C)c2)cc(C(=O)N(C)Cc2nc(C)cs2)c1" < 300 nM
